biological target: UniProt:P11309; experiment: IC50 of Compound (nM) (ATP present at Km of enzyme), Table 30; type: biochemical
Sequence (P11309 whole entry): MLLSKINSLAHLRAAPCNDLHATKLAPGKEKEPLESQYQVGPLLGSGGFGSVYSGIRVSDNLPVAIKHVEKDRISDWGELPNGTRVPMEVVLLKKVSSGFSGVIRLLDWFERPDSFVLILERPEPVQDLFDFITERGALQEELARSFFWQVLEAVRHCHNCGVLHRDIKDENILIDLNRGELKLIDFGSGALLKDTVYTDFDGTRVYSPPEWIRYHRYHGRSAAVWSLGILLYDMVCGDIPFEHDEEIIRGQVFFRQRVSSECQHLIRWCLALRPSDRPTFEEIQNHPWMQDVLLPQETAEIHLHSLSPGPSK
pIC50: −log10 of the molar value.

{"MOLECULE": "O=C1NC(=O)/C(=C/c2ccnc(N3CCCC4NCCCC43)n2)S1 (stereo not shown)", "pIC50": 7.72}

----------
target: Enzyme (kinases of Table 30) (Homo sapiens, UniProt Q9P1W9); test: IC50 of Compound (nM) (ATP present at Km of enzyme), Table 30; type: biochemical; conditions: Pim-2(h), ATP present at Km of enzyme; read-out: IC50 of Compound, Pim-2(h)
Sequence (Q9P1W9 whole entry): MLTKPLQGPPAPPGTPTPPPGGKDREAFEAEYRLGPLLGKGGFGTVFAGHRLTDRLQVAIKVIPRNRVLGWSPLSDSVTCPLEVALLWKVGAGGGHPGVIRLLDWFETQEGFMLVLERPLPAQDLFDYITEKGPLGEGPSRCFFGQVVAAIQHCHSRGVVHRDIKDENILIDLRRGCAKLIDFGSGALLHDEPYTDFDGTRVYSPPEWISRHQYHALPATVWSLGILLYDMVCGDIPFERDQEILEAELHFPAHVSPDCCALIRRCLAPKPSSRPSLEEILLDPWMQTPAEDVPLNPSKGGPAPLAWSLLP
Measured IC50, listed per entry.
MEASURED_METRIC: IC50 (nM)

{"MOLECULE": "O=C1NC(=O)/C(=C/c2ccnc(N3CCC(CNCc4cccnc4)CC3)n2)S1", "VALUE_UNITS": "nM", "VAL": 108}
{"MOLECULE": "CN(c1nccc(/C=C2\\SC(=O)NC2=O)n1)C1CCCCC1", "VALUE_UNITS": "nM", "VAL": 16}
{"MOLECULE": "CN(c1nccc(/C=C2\\SC(=O)NC2=O)n1)[C@H]1CCCNC1", "VALUE_UNITS": "nM", "VAL": 5}
{"MOLECULE": "CC1CC(C)CN(c2nccc(/C=C3\\SC(=O)NC3=O)n2)C1 (stereo not shown)", "VALUE_UNITS": "nM", "VAL": 18}
{"MOLECULE": "Cc1cccc(CNCC2CCN(c3nccc(/C=C4\\SC(=O)NC4=O)n3)CC2)n1", "VALUE_UNITS": "nM", "VAL": 75}
{"MOLECULE": "CN(CC1CCNCC1)c1nccc(/C=C2\\SC(=O)NC2=O)n1", "VALUE_UNITS": "nM", "VAL": 98}
{"MOLECULE": "NCc1cccc(CNc2nccc(/C=C3\\SC(=O)NC3=O)n2)c1", "VALUE_UNITS": "nM", "VAL": 104}
{"MOLECULE": "CN1CCC(CNc2nccc(/C=C3\\SC(=O)NC3=O)n2)CC1", "VALUE_UNITS": "nM", "VAL": 228}
{"MOLECULE": "O=C1NC(=O)/C(=C/c2ccnc(N3CCc4[nH]c5ccccc5c4C3)n2)S1", "VALUE_UNITS": "nM", "VAL": 127}
{"MOLECULE": "O=C1NC(=O)/C(=C/c2ccnc(N3CCC(CNc4ccc5ccccc5n4)CC3)n2)S1", "VALUE_UNITS": "nM", "VAL": 146}

Hello, the source for this data is patent US9157077B2, in case you need it.
